Provenance of the data: patent US7964531B2

# Tested on: Scirpus joncoides
# experiment description: Test Example 1: herbicidal effects, paddy-field pot test
# Format: in vivo
# measurement context: chemical dosage 10 g/a; wettable powder applied 3 days after transplanting; judged after 25 days
recorded metric: Herbicidal effects Scirpus joncoides

| compound | assay system | recorded metric | result |
| --- | --- | --- | --- |
| Oc1cc(Cl)nnc1Oc1cccc2c1OCO2 | Scirpus joncoides | Herbicidal effects Scirpus joncoides | 5 (Growth inhibition rate; 91 to 100%) |

For every item below, please supply its Herbicidal effects Scirpus joncoides.
1. Cc1ccccc1Oc1nnc(Cl)cc1OC(=O)OCC(Cl)(Cl)Cl
2. COc1cccc(Br)c1Oc1nnc(Cl)cc1O
3. Oc1cc(Cl)nnc1Oc1cccc2c1C1CC1C2 (centres unmarked)

1: 4 (Growth inhibition rate; 71 to 90%); 2: 4 (Growth inhibition rate; 71 to 90%); 3: 4 (Growth inhibition rate; 71 to 90%)

====

# System: Cyperus serotinus
# experiment description: Test Example 1: herbicidal effects, paddy-field pot test
# Type: in vivo
# measurement context: chemical dosage 10 g/a; wettable powder applied 3 days after transplanting; judged after 25 days
recorded metric: Herbicidal effects Cyperus serotinus

Guide cases for Herbicidal effects Cyperus serotinus, answers given:
| molecule smiles | Herbicidal effects Cyperus serotinus |
| --- | --- |
| CC(C)c1cccc(C2CC2)c1Oc1nnc(Cl)cc1O | 4 (Growth inhibition rate; 71 to 90%) |
| COc1cccc(C)c1Oc1nnc(Cl)cc1O | 5 (Growth inhibition rate; 91 to 100%) |
| CCc1ccc2c(c1Oc1nnc(Cl)cc1O)CCC2 | 5 (Growth inhibition rate; 91 to 100%) |
| Oc1cc(Cl)nnc1Oc1cc(Cl)ccc1C1CC1 | 5 (Growth inhibition rate; 91 to 100%) |
| CC(=O)Oc1cc(Cl)nnc1Oc1ccccc1C1CC1 | 5 (Growth inhibition rate; 91 to 100%) |

Batch of 8 compounds: report Herbicidal effects Cyperus serotinus for each.
1. CCCS(=O)(=O)Oc1cc(Cl)nnc1Oc1cccc2c1CCC2
2. O=S(=O)(Oc1cc(Cl)nnc1Oc1ccccc1C1CC1)C(F)(F)F
3. Cc1ccccc1Oc1nnc(Cl)cc1OC(=O)OCC(Cl)(Cl)Cl
4. Oc1cc(Cl)nnc1Oc1cccc2c1CCC2
5. Cc1cc(C)c(Br)c(Oc2nnc(Cl)cc2O)c1
6. Cc1ccccc1Oc1nnc(Cl)cc1OS(C)(=O)=O
7. Cc1cc(C)c(Oc2nnc(Cl)cc2O)c(C2CC2)c1
8. CS(=O)(=O)Oc1cc(Cl)nnc1Oc1ccccc1C1CC1

["4 (Growth inhibition rate; 71 to 90%)", "5 (Growth inhibition rate; 91 to 100%)", "5 (Growth inhibition rate; 91 to 100%)", "5 (Growth inhibition rate; 91 to 100%)", "2 (Growth inhibition rate; 31 to 50%)", "5 (Growth inhibition rate; 91 to 100%)", "5 (Growth inhibition rate; 91 to 100%)", "5 (Growth inhibition rate; 91 to 100%)"]

====

recorded metric: melting point

# annotated cases, reported melting point shown
| molecule smiles | melting point |
| --- | --- |
| CN(C)C(=O)Oc1cc(Cl)nnc1Oc1cccc(C(F)(F)F)c1 | 92 to 93 °C |
| CC(C)c1ccccc1Oc1nnccc1O | 181.5 to 182 °C |
| CC=Cc1cc(O)c(Oc2ccccc2C)nn1 | 208 to 210 °C |
| Cc1c(Cl)cccc1Oc1nnc(Cl)cc1O | 250 to 252 °C |
| Cc1cccc(C2CC2)c1Oc1nnc(Cl)cc1OC(=O)CC(C)(C)C | 91 to 92 °C |

Batch: melting point for all items listed.
1. Cc1cc(C)c(Oc2nnc(Cl)cc2O)c(C2CC2)c1
2. Oc1cc(Cl)nnc1Oc1cccc(Cl)c1F
3. Oc1cc(Cl)nnc1Oc1cccc(C(F)(F)F)c1
4. COC(=O)c1ccccc1Oc1nnc(Cl)cc1O

["215 to 217 °C", "187 to 195 °C", "213 to 216 °C", "188 to 191 °C"]

Could I get melting point for every one of these entries?
1. Oc1cc(Cl)nnc1Oc1c(C2CC2)ccc2ccoc12
2. COc1ccc(Br)cc1Oc1nnc(Cl)cc1O

["175 to 180 °C", "135 to 137 °C"]
